- Assay Target: T1, human CD19 (human, UniProt P15391 20-556)
- T1 sequence (looked up): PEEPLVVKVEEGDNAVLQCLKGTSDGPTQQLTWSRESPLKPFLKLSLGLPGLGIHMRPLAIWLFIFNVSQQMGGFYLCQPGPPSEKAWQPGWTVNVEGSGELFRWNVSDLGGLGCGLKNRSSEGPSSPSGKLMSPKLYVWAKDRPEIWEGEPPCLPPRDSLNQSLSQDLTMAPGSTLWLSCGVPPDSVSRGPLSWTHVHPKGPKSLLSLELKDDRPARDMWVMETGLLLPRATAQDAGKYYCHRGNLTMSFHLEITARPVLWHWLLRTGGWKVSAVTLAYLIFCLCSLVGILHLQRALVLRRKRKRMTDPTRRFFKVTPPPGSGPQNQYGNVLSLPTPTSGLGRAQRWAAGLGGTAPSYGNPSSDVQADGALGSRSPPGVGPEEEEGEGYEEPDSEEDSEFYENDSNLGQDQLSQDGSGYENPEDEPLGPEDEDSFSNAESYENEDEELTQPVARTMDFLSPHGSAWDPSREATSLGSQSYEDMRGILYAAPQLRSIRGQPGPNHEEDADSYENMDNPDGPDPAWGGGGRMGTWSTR
- Assay Text: cell-based or functional assay
Measured Property: EC50 of cell viability, Fab-Zap assay on Ramos cells (internalization)
Put your answer as a value accompanied by its unit after it.

[ask] Would you mind telling me what EC50 of cell viability, Fab-Zap assay on Ramos cells (internalization) value was observed for WBP7011_4.194.10 (antibody, V domains shown, also called W7011-4.194.10) VH: EVQLQQSGPELVKPGASVKMSCKASGYTFTSYVMHWVKQKPGQGLEWIGYINPYNDGTKYNEKFKGKATLTSDKSSSTAYMELSSLTSEDSAVYYCARGPYYYGSSPFDYWGQGTTLTVSS VL: DAVMTQTPLSLPVSLGDQASISCRSSQTLENSNGNTYLNWYLQKPGQSPQLLIYRVSNRFSGVLDRFSGSGSGTDFTLKISRVETEDLGVYFCLQVTHVPYTFGGGTKLEIK ?
[reply] 0.0117 nM
